target: Cytochrome P450 2C19 (Homo sapiens); assay: NVS_ADME_hCYP2C19: NovaScreen (NVS) CYP450-related Enzyme Activity (ADME) Assay for human CYP2C19 (AID 2283113);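 on AC50: potency for inhibition seen as loss of fluorescent signal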
Inconclusive results are not listed. Active and inactive are the calls of the source. How the source made its calls: active means hit-call score of the fitted dose curve at least 0.9, where 1 is the maximum; inconclusive means response in the unintended direction; inactive means score below 0.9.
Assay endpoint: AC50

Please review the following examples before continuing.
{"Compound": "Cc1cccc([N+](=O)[O-])c1C", "Target or system": "Cytochrome P450 2C19 (Homo sapiens)", "Value reported": "18.6 µM (active)"}
{"Compound": "CNCc1cc(F)ccc1Oc1ccc(Cl)c(Cl)c1", "Target or system": "Cytochrome P450 2C19 (Homo sapiens)", "Value reported": "1.11 µM (active)"}
{"Compound": "COc1ccc(S(=O)(=O)N2C(=O)[C@@](c3ccccc3OC)(N3C[C@H](O)C[C@H]3C(=O)N(C)C)c3cc(Cl)ccc32)c(OC)c1", "Target or system": "Cytochrome P450 2C19 (Homo sapiens)", "Value reported": "6.95 µM (active)"}
{"Compound": "CCCCC(CC)COC(=O)CC(C(=O)OCC(CC)CCCC)S(=O)(=O)O (centres undefined)", "Target or system": "Cytochrome P450 2C19 (Homo sapiens)", "Value reported": "4.49 µM (active)"}
{"Compound": "CCOC(=O)CCC(=O)OCC", "Target or system": "Cytochrome P450 2C19 (Homo sapiens)", "Value reported": "15.4 µM (active)"}
{"Compound": "CN1CCN(Cc2cc(-c3ccc4[nH]c(=O)oc4c3)co2)[C@@H](c2ccc(F)cc2)C1", "Target or system": "Cytochrome P450 2C19 (Homo sapiens)", "Value reported": "inactive"}

Lookup: Check the records and state AC50 for CC1=C(/C=C/C(C)=C/C=C/C(C)=C/CO)C(C)(C)CCC1
Found: inactive

Lookup: Return AC50 for the following compound: Cc1c(C(=O)O)c(O)cc2c1C(=O)c1c(O)c([C@@H]3O[C@H](CO)[C@@H](O)[C@H](O)[C@H]3O)c(O)c(O)c1C2=O
Found: inactive

Lookup: Give the reported value of AC50 for this record: CCc1c(C(=O)NN2CCCCC2)nn(-c2ccc(Cl)cc2Cl)c1-c1ccc(Br)cc1
Found: inactive
